test: Mouse pK; settings: in vivo, ip, read-out: Mouse pK: T1/2 (ip)
Quantity kind: half-life (min)
Give the value in min but do not write min after it.

Exam item: What value of half-life has been recorded for this entry: N#Cc1cccc(CN2CCC(Nc3ncnc4sc(Cl)cc34)CC2)c1 [Example B43, monomaleate]
Marked response: 30

---

What fraction unbound was measured for each of the following?
test: % Protein Binding; assay type: in vitro ADME
Structures can show the parent of a compound that is named as a salt.
Returns: the value as a bare number; no unit string appended.

Exam item: What value of fraction unbound has been recorded for this entry: N#Cc1cccc(CN2CCC(Nc3ncnc4sc(Cl)cc34)CC2)c1 [Example B43, monomaleate]
Marked response: 0.018

Exam item: What value of fraction unbound has been recorded for this entry: Fc1cccc(CN2CCC(Nc3ncnc4sc(Cl)cc34)CC2)c1.O=C(O)/C=C\C(=O)O
Marked response: 0.017

Exam item: What value of fraction unbound has been recorded for this entry: Cc1c(Cl)sc2ncnc(NC3CCN(Cc4cccc(F)c4)CC3)c12.O=C(O)/C=C\C(=O)O
Marked response: 0.062

Exam item: What value of fraction unbound has been recorded for this entry: Fc1cc(F)cc(CN2CCC(Nc3ncnc4sc(Cl)cc34)CC2)c1.O=C(O)/C=C\C(=O)O
Marked response: 0.01

Exam item: What value of fraction unbound has been recorded for this entry: CC(C)Cc1cc2c(NC3CCN(C(C)c4cc(F)cc(F)c4)CC3)ncnc2s1 (centres unmarked) [Example B18, dihydrochloride]
Marked response: 0.062

---

What half-life was measured for each of the following?
assay: HLM T1/2; conditions: human, liver microsomes
Structures can show the parent of a compound that is named as a salt.

Exam item: What value of half-life has been recorded for this entry: Fc1ccccc1CN1CCC(Nc2ncnc3sc(Cl)cc23)CC1
Marked response: < 15 min

Exam item: What value of half-life has been recorded for this entry: O=S(=O)(c1cccc(CN2CCC(Nc3ncnc4sc(Cl)cc34)CC2)c1)C(F)(F)F
Marked response: < 15 min

Exam item: What value of half-life has been recorded for this entry: Fc1cc(F)cc(CN2CCC(Nc3ncnc4sccc34)CC2)c1 [Example B30, dihydrochloride]
Marked response: 19 min

Exam item: What value of half-life has been recorded for this entry: CC(c1c(F)cccc1F)N1CCC(Nc2ncnc3sc4c(c23)CCCC4)CC1 (centres unmarked) [Example B21, dihydrochloride]
Marked response: < 15 min

Exam item: What value of half-life has been recorded for this entry: N#Cc1cccc(CN2CCC(Nc3ncnc4sc5c(c34)CCCC5)CC2)c1 [Example B11, dihydrochloride]
Marked response: < 15 min

---

target: D2S (Homo sapiens, UniProt P14416); assay: D2S binding (Ki)
Sequence (P14416 1-414 isoform P14416-2): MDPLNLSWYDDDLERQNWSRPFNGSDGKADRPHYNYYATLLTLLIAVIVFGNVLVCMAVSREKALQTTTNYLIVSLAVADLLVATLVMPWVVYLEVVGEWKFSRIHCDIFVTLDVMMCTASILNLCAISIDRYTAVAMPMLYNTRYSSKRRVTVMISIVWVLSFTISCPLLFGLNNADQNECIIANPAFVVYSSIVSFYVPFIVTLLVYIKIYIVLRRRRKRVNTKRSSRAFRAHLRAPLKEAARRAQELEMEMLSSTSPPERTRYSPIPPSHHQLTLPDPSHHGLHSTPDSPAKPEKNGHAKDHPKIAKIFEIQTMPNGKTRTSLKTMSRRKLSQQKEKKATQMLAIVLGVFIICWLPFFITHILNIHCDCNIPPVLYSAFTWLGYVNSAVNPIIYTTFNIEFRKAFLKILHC
Quantity kind: Ki (nM)
Give the value in nM but do not write nM after it.

Exam item: What value of Ki has been recorded for this entry: N#Cc1cccc(CN2CCC(Nc3ncnc4sc(Cl)cc34)CC2)c1 [Example B43, monomaleate]
Marked response: 1000

Exam item: What value of Ki has been recorded for this entry: O=S(=O)(c1cccc(CN2CCC(Nc3ncnc4sc(Cl)cc34)CC2)c1)C(F)(F)F
Marked response: 3100

Exam item: What value of Ki has been recorded for this entry: Fc1ccc(-c2c(Cl)sc3ncnc(NC4CCN(Cc5cc(F)cc(F)c5)CC4)c23)cc1
Marked response: 1100

---

experiment: AMES Test; format: cell-based
Quantity kind: AMES Test

[[record]]
compound = "N#Cc1cccc(CN2CCC(Nc3ncnc4sc(Cl)cc34)CC2)c1 [Example B43, monomaleate]"
result = "Negative"

[[record]]
compound = "Fc1cccc(CN2CCC(Nc3ncnc4sc(Cl)cc34)CC2)c1.O=C(O)/C=C\\C(=O)O [Example B42]"
result = "Negative"

[[record]]
compound = "Fc1cc(F)cc(CN2CCC(Nc3ncnc4sc(Cl)cc34)CC2)c1.O=C(O)/C=C\\C(=O)O [Example B34]"
result = "Negative"

[[record]]
compound = "N#Cc1cc(CN2CCC(Nc3ncnc4sc(Cl)cc34)CC2)ccc1F [Example B50]"
result = "Negative"


---

test system: IP3; test: IC50 (IP3); type: cell-based
Quantity kind: pIC50
Conceptually, pIC50 converts a concentration in mol/L into minus its log10.

Exam item: Can you look up pIC50 on IP3 for Fc1cccc(CN2CCC(Nc3ncnc4sc5c(c34)CCCC5)CC2)c1 [Example B3] ?
Marked response: 7.65

Exam item: Can you look up pIC50 on IP3 for Fc1cccc(CN2CCC(Nc3ncnc4sc(Cl)cc34)CC2)c1.O=C(O)/C=C\C(=O)O [Example B42] ?
Marked response: 8.77

Exam item: Can you look up pIC50 on IP3 for CC(C)c1cc2c(NC3CCN(Cc4cc(F)cc(F)c4)CC3)ncnc2s1 [Example B32] ?
Marked response: 8.82

Exam item: Can you look up pIC50 on IP3 for Fc1cc(F)cc(CN2CCC(Nc3ncnc4sc(Cl)cc34)CC2)c1.O=C(O)/C=C\C(=O)O [Example B34] ?
Marked response: 9.13

Exam item: Can you look up pIC50 on IP3 for Cc1c(Cl)sc2ncnc(NC3CCN(Cc4cccc(F)c4)CC3)c12.O=C(O)/C=C\C(=O)O [Example B38] ?
Marked response: 8.64

Exam item: Can you look up pIC50 on IP3 for N#Cc1cccc(CN2CCC(Nc3ncnc4sc(Cl)cc34)CC2)c1 [Example B43, monomaleate] ?
Marked response: 8.83

---

target: hERG (Homo sapiens); experiment: hERG % inhibition at 1 uM
Sequence (Q12809 whole entry): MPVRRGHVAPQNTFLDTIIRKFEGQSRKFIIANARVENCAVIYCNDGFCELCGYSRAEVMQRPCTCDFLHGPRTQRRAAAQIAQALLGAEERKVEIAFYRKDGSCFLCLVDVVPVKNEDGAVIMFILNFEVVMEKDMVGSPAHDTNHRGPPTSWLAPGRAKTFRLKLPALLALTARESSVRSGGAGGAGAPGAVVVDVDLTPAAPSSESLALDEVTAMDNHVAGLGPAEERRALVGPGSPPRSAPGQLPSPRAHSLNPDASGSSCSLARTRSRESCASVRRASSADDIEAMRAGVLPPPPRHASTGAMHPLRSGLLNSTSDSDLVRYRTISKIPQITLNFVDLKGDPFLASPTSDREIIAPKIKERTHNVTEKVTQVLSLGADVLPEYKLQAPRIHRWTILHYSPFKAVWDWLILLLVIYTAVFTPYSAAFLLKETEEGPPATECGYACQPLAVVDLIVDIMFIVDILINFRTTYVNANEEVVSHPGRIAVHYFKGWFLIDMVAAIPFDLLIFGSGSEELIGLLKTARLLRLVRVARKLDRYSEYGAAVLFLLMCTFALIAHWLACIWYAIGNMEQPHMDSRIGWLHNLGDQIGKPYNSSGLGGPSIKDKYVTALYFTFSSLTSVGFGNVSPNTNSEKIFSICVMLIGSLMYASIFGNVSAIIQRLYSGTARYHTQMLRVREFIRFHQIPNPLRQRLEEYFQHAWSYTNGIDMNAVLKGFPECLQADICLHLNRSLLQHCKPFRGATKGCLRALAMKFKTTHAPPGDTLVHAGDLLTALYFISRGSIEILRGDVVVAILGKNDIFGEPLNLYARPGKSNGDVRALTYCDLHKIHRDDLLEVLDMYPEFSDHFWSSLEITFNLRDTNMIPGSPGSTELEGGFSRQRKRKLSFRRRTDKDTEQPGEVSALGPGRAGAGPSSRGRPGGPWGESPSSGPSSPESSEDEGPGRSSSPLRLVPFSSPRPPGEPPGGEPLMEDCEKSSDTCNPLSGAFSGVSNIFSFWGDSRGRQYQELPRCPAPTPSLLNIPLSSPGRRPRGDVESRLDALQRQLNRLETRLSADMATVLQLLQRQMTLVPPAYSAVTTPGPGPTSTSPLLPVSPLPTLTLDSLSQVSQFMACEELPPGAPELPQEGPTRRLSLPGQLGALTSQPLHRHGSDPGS
Counter-ions that a name gives are not always drawn.
What hERG (% Inhibition at 1 uM) was measured for each of the following?
Give the value in % but do not write % after it.

Exam item: What value of hERG (% Inhibition at 1 uM) has been recorded for this entry: N#Cc1cc(CN2CCC(Nc3ncnc4sc(Cl)cc34)CC2)ccc1F
Marked response: 23.7

Exam item: What value of hERG (% Inhibition at 1 uM) has been recorded for this entry: Cc1c(Cl)sc2ncnc(NC3CCN(Cc4cccc(F)c4)CC3)c12.O=C(O)/C=C\C(=O)O
Marked response: 78.1

Exam item: What value of hERG (% Inhibition at 1 uM) has been recorded for this entry: Fc1cccc(CN2CCC(Nc3ncnc4sc5c(c34)CCCC5)CC2)c1
Marked response: 58.5

Exam item: What value of hERG (% Inhibition at 1 uM) has been recorded for this entry: CC(C)Cc1cc2c(NC3CCN(C(C)c4cc(F)cc(F)c4)CC3)ncnc2s1 (stereo not drawn) [Example B18, dihydrochloride]
Marked response: 31

Exam item: What value of hERG (% Inhibition at 1 uM) has been recorded for this entry: Fc1cc(F)cc(CN2CCC(Nc3ncnc4sccc34)CC2)c1 [Example B30, dihydrochloride]
Marked response: 62

Exam item: What value of hERG (% Inhibition at 1 uM) has been recorded for this entry: Fc1cc(F)cc(CN2CCC(Nc3ncnc4sc(Cl)cc34)CC2)c1.O=C(O)/C=C\C(=O)O
Marked response: 29.4

Exam item: What value of hERG (% Inhibition at 1 uM) has been recorded for this entry: N#Cc1cccc(CN2CCC(Nc3ncnc4sc(Cl)cc34)CC2)c1 [Example B43, monomaleate]
Marked response: 47.3

Exam item: What value of hERG (% Inhibition at 1 uM) has been recorded for this entry: CC(C)Cc1cc2c(NC3CCN(C(C)c4cccc(F)c4)CC3)ncnc2s1 (stereo not drawn) [Example B14, dihydrochloride]
Marked response: 76.1

Exam item: What value of hERG (% Inhibition at 1 uM) has been recorded for this entry: Fc1cccc(CN2CCC(Nc3ncnc4sc(Cl)cc34)CC2)c1.O=C(O)/C=C\C(=O)O
Marked response: 50.1

---

target: 5HT2B (Homo sapiens, UniProt P41595); assay: 5HT2B binding (Ki of Biological Data Table); conditions: 1000 nM
Sequence (P41595 whole entry, species assumed): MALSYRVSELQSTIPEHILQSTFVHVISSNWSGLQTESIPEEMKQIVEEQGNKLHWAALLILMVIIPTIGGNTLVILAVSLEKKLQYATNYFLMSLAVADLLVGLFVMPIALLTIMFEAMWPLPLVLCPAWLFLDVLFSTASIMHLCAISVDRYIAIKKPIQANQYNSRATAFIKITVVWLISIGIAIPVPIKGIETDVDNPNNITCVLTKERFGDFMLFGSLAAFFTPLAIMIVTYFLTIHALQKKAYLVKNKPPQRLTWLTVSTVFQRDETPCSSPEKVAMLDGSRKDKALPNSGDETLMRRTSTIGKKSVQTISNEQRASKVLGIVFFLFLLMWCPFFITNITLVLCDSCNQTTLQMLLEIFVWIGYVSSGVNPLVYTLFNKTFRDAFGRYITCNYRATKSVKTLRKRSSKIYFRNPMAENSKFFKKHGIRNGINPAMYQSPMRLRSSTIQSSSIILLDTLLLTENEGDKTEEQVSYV
What % at 1000 nM (5HT2B) was measured for each of the following?
Give the value in % but do not write % after it.

Exam item: Can you look up % at 1000 nM (5HT2B) on 5HT2B (Homo sapiens, UniProt P41595) for Oc1cc(C(F)(F)F)cnc1N1CCC(Nc2ncnc3scc(-c4ccccc4)c23)CC1 ?
Marked response: 30

Exam item: Can you look up % at 1000 nM (5HT2B) on 5HT2B (Homo sapiens, UniProt P41595) for c1ccc(CN2CCC(Nc3ncnc4sccc34)CC2)cc1 ?
Marked response: 96

Exam item: Can you look up % at 1000 nM (5HT2B) on 5HT2B (Homo sapiens, UniProt P41595) for Cc1csc2ncnc(NC3CCN(Cc4ccccc4)CC3)c12 ?
Marked response: 97

Exam item: Can you look up % at 1000 nM (5HT2B) on 5HT2B (Homo sapiens, UniProt P41595) for c1ccc(CN2CCC(Nc3ncnc4scc(-c5ccccc5)c34)CC2)cc1 ?
Marked response: 101

Exam item: Can you look up % at 1000 nM (5HT2B) on 5HT2B (Homo sapiens, UniProt P41595) for CN1CCC(N(C)c2ncnc3sc4c(c23)CCCC4)CC1 ?
Marked response: 67
